Biological target: Transcriptional activator protein TraR (Agrobacterium tumefaciens)
Test: Agonist activity at Agrobacterium tumefaciens WCF (pCF372) TraR assessed as activation of quorum sensing at 10 uM relative to OOHL
Format: functional
I'd appreciate it if you could supply Activity values for the items below.
One number for each entry, in %.

// worked examples, Activity included
molecule_smiles=CCCCCCCCCC(=O)CC(=O)NCCC(c1ccccc1)c1ccccc1 system_tested="Transcriptional activator protein TraR (Agrobacterium tumefaciens)" measured_result=-1
molecule_smiles=CCCCCCCCCC(=O)CC(=O)NCC(=O)OCC system_tested="Transcriptional activator protein TraR (Agrobacterium tumefaciens)" measured_result=2
molecule_smiles=CCCCCCCCCC(=O)CC(=O)NCc1ccc(F)cc1 system_tested="Transcriptional activator protein TraR (Agrobacterium tumefaciens)" measured_result=0
molecule_smiles=CCCCCCCCCC(=O)CC(=O)Nc1cc(-c2ccc(Cl)cc2)nn1C system_tested="Transcriptional activator protein TraR (Agrobacterium tumefaciens)" measured_result=-2
molecule_smiles=CCCCCCCCCC(=O)CC(=O)NCc1c(F)cccc1F system_tested="Transcriptional activator protein TraR (Agrobacterium tumefaciens)" measured_result=-1
molecule_smiles=CCCCCCCCCC(=O)CC(=O)NCc1ccc(OC)c(OC)c1 system_tested="Transcriptional activator protein TraR (Agrobacterium tumefaciens)" measured_result=0
molecule_smiles=CCCCCCCCCC(=O)CC(=O)NCc1ccccc1F system_tested="Transcriptional activator protein TraR (Agrobacterium tumefaciens)" measured_result=-1
molecule_smiles=CCCCCCCCCC(=O)CC(=O)NCCC1=CCCCC1 system_tested="Transcriptional activator protein TraR (Agrobacterium tumefaciens)" measured_result=-1
molecule_smiles=CCCCCCCCCC(=O)CC(=O)NCCc1ccccc1 system_tested="Transcriptional activator protein TraR (Agrobacterium tumefaciens)" measured_result=0
molecule_smiles=CCCCCCCCCC(=O)CC(=O)NC1CCCC1 system_tested="Transcriptional activator protein TraR (Agrobacterium tumefaciens)" measured_result=-1

Please go through the list and note Activity for each compound.
1. CCCCCCCCCC(=O)CC(=O)NCc1ccco1
2. CCCCCCCCCC(=O)CC(=O)NCc1cccc([N+](=O)[O-])c1

**Result**
1. -1
2. 0
